- protocol: Carnosine permeability across Caco-2 cells
- Format: in vitro ADME, Human
- settings: human; Caco-2 passage 26; 20 μM in HBSS; apical to basolateral

>  <compound>
NCCC(=O)N[C@@H](Cc1cnc[nH]1)C(=O)O [Carnosine, L-carnosine]

>  <Papp A→B at 20 μM [nm/s]>
30.5

$$$$
